TARGET OR SYSTEM: Glucagon-like peptide 1 receptor (Homo sapiens, UniProt P43220)
Sequence (P43220 whole entry): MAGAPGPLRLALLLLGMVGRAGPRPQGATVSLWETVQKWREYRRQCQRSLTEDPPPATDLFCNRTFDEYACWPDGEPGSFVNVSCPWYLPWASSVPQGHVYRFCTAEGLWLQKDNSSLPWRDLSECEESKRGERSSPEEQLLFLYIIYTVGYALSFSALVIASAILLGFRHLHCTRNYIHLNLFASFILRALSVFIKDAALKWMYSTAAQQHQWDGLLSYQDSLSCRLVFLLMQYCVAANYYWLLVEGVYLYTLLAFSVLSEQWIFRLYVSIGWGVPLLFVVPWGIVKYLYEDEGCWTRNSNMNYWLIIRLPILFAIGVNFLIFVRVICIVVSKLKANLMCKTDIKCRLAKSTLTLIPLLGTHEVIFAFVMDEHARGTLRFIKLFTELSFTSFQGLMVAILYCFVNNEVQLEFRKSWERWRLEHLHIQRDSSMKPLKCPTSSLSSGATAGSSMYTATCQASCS
PROCEDURE DETAILS: Activation of GLP-1 receptor (unknown origin) expressed in CHO-K1 cells assessed as increase in cAMP accumulation by time-resolved fluorescence resonance energy transfer immunoassay
Assay type: functional, cell-based
pEC50: −log10 of the molar value. [ ]: non-standard residue; d: D form. Aun = NCCCCCCCCCCC(=O)O; AEEA = NCCOCCOCC(=O)O; Aib = CC(C)(N)C(=O)O; Aoc = NCCCCCCCC(=O)O
REPORTED METRIC: pEC50

# count of solved cases: 4
| SUBSTANCE | pEC50 |
| --- | --- |
| H-[Aib]EGTFTSDVSSYLEGQAAKEFIAWLVKG[AEEA][AEEA]GVKALIDEILAA-NH2 | 9.77 |
| H-[Aib]EGTFTSDVSSYLEGQAAKEFIAWLVKG[Aun][AEEA]GVKALIDEILAA-NH2 | 9.80 |
| H-[Aib]EGTFTSDVSSYLEGQAAKEFIAWLVKG[Aoc]GVKALIDEILAA-NH2 | 9.69 |
| H-[Aib]EGTFTSDVSSYLEGQAAKEFIAWLVKG[Aoc][AEEA]GVKALIDEILAA-NH2 | 9.87 |

I: H-[Aib]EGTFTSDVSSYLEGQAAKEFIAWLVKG[AEEA]GVKALIDEILAA-NH2
II: H-[Aib]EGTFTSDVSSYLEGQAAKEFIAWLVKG[Aun]GVKALIDEILAA-NH2
input: Given the two records I and II , choose the one whose pEC50 value is lower. Pick one; state its label.
output: II
(II: 9.68, I: 9.88)
